Where do the numbers come from? From paper PMC7155171.

Tested on: P. falciparum Dd2 (PfLuc) line expressing firefly luciferase, asexual blood stage
Test: microbe, parasite or virus in culture
Format: cell-based, Plasmodium falciparum
Conditions: Plasmodium falciparum, DD2; 11-pt dose response, 96hr; read-out: CDD P. falciparum Luciferase ABS 11-pt Reconfirmation Dose Response (96hr): Maximum inhibition (%)
# Emax per entry
Give the value in % but do not write % after it.

Example entries and their recorded answers appear below.
{"MOLECULE": "CCN(CC)CCNS(=O)(=O)c1cccc(CSC)c1", "READING": 89.5}
{"MOLECULE": "NC(=O)CN1CCC(Nc2ccnc3ccc(Cl)cc23)CC1", "READING": 100}
{"MOLECULE": "Cc1ccc(CNCc2cccc3cccnc23)c(OC2CCOC2)c1 (stereo not drawn)", "READING": 98.4}
{"MOLECULE": "COc1cccc(CNCc2ccc(F)c(Cl)c2)c1O", "READING": 99.2}
{"MOLECULE": "NCC1Cc2cc(-c3nccc(N4CCC(O)CC4)n3)cc(F)c2O1 (stereo not drawn)", "READING": 98.9}

Continue with the next molecule.
Input: # get_value(readout= Emax, system= P. falciparum Dd2 (PfLuc) line expressing firefly luciferase, asexual blood stage) for CNc1nc(C)cc(NC2CCCN(C3Cc4ccccc4C3)C2)n1 (stereo not drawn)
Output: 100

* * *

Test system: P. falciparum Dd2
Assay: SYBR green I asexual blood stage proliferation assay (96 h)
Type: cell-based, Plasmodium falciparum
Conditions: Plasmodium falciparum, DD2; 11-pt dose response, 96hr; read-out: P. falciparum Sybr Green I ABS 11-pt Reconfirmation Dose Response (96hr): Maximum inhibition (%)
# binarize Emax: threshold 90% inclusive, high side yes, low side no

Some solved cases for reference:
{"COMPOUND": "CC(N)Cc1ccccc1Sc1ccccc1 (stereo not shown)", "ASSIGNED LABEL": "no"}
{"COMPOUND": "OC1(c2ccc(F)cc2)CCN(Cc2ccccc2N2CCCC2)CC1", "ASSIGNED LABEL": "no"}
{"COMPOUND": "CCc1[nH]c2c(CNc3cc(C)nc(NC)n3)cc(C)cc2c1C", "ASSIGNED LABEL": "yes"}
{"COMPOUND": "NC1CCCCN(Cc2cc(-c3ccccc3OC(F)(F)F)no2)C1 (stereo not shown)", "ASSIGNED LABEL": "no"}

Input: API: above_or_equal(metric=Emax, cutoff=90%) for item c1cnn(C[C@@H]2C[C@@H]3CN(CC4CC4)CC[C@@H]3N2c2nccs2)c1
Output: no

Input: Record: Cc1c(C)n(CC(O)CN2CCN(CCO)CC2)c2c(Cl)cccc12 (stereo not shown)
Output: no

* * *

Tested on: P. falciparum Dd2 (PfLuc) line expressing firefly luciferase, asexual blood stage
Assay: microbe, parasite or virus in culture
Assay type: cell-based, Plasmodium falciparum
Settings: Plasmodium falciparum, DD2; 11-pt dose response, 96hr; read-out: P. falciparum Luciferase ABS 11-pt Reconfirmation Dose Response (96hr): Maximum inhibition (%)
MEASUREMENT KIND: Emax (%)
Give the value in % but do not write % after it.

Input: Form field: reported Emax of Cc1ncc(CNCCO)c2cc(C(=O)c3ccc(Br)cc3)oc12
Output: 98.3

Input: Record: c1cc(N2CCC(CN3CCOCC3)CC2)c2sccc2n1
Output: 100
